STUDY SYSTEM: YncA (Escherichia coli)
Construct: The purified protein was identified as YncA, a GCN5 related acyl transferase; made in house; host or cells: Untagged endogenous activity purified chromatographically from broken cells; E. coli is inferred
TEST DESCRIPTION: DTNB-based substrate and acyl-donor specificity test of YncA
Type: biochemical, E. coli
EXPERIMENTAL PARAMETERS: Acetyl-coA as acyl-donor; various substrates
METRIC NAME: Specific Activity

1) NCCCC[C@H](N)C(=O)O    12 mUI/mg protein
2) N[C@@H](CCC(=O)O)C(=O)O [Glutamate]    4 mUI/mg protein
3) NC(=O)CC[C@H](N)C(=O)O    10 mUI/mg protein
4) CSCC[C@H](N)C(=O)O    745 mUI/mg protein
5) CS(=O)(=O)CC[C@H](N)C(=O)O    1332 mUI/mg protein
6) C[S+]([O-])CC[C@H](N)C(=O)O (some centres unmarked) [Methionine sulfoxide]    1100 mUI/mg protein
7) NC(=O)C[C@H](N)C(=O)O    18 mUI/mg protein
8) CS(=N)(=O)CC[C@H](N)C(=O)O (some centres unmarked)    1243 mUI/mg protein

====

STUDY SYSTEM: YncA (Escherichia coli, UniProt P76112)
Construct: The purified protein was identified as YncA, a GCN5 related acyl transferase; made in house; host or cells: Untagged endogenous activity purified chromatographically from broken cells; E. coli is inferred
Sequence (P76112 whole entry): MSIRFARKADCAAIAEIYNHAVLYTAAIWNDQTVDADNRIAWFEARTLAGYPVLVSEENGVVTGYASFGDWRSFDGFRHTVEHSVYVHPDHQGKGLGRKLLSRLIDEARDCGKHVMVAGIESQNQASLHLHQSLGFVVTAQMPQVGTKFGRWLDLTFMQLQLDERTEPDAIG
TEST DESCRIPTION: DTNB-based substrate and acyl-donor specificity test of YncA
Assay type: biochemical, E. coli
EXPERIMENTAL PARAMETERS: DTNB-based assay
METRIC NAME: Activity as substrate of YncA (in words)

1. C[S+]([O-])CC[C@H](N)C(=O)O (some centres unmarked) [Methionine sulfoxide]    Strong activities
2. NC(=O)CC[C@H](N)C(=O)O    Weak activities
3. NCCCC[C@H](N)C(=O)O    Weak activities
4. CS(=N)(=O)CC[C@H](N)C(=O)O (some centres unmarked)    Strong activities
5. CS(=O)(=O)CC[C@H](N)C(=O)O    Strong activities
6. CSCC[C@H](N)C(=O)O    Strong activities
7. N[C@@H](CCC(=O)O)C(=O)O [Glutamate]    Weak activities
8. NC(=O)C[C@H](N)C(=O)O    Weak activities

====

Some compounds, each annotated with its measured % Activity (activity with respect to the substrate methionine).
STUDY SYSTEM: YncA (Escherichia coli, UniProt P76112)
Construct: The purified protein was identified as YncA, a GCN5 related acyl transferase; made in house; host or cells: Untagged endogenous activity purified chromatographically from broken cells; E. coli is inferred
TEST DESCRIPTION: DTNB-based substrate and acyl-donor specificity test of YncA
Type: biochemical, E. coli
EXPERIMENTAL PARAMETERS: Acetyl-coA as acyl-donor; methionine = 100
METRIC NAME: % Activity (activity with respect to the substrate methionine)

1. CSCC[C@H](N)C(=O)O    100%
2. CS(=N)(=O)CC[C@H](N)C(=O)O (stereo partly drawn)    166.9%
3. NC(=O)CC[C@H](N)C(=O)O    1.4%
4. CS(=O)(=O)CC[C@H](N)C(=O)O    178.8%
5. NCCCC[C@H](N)C(=O)O    1.6%
6. C[S+]([O-])CC[C@H](N)C(=O)O (stereo partly drawn) [Methionine sulfoxide]    147.6%
7. NC(=O)C[C@H](N)C(=O)O    2.4%
8. N[C@@H](CC(=O)O)C(=O)O [Aspartate]    1%
9. N[C@@H](CCC(=O)O)C(=O)O [Glutamate]    0.6%
